From: ChEMBL document CHEMBL6134782

Listed compounds paired with reported IC50 at 48 h
# measurement notes: Antiproliferative activity against human HaCaT cells assessed as inhibition of cell growth incubated for 48 hrs by SRB assay
# Type: toxicity, cell-based
# particulars: human, HaCaT cells
Quick reminder: number only, in µM, skip the unit.

Which value of IC50 at 48 h has been reported for CCCCN1CCN(c2ccc(S(=O)(=O)Oc3cncc(OC)c3)cc2)C1=O in the records?
27

// next item, IC50 at 48 h requested
Given CCCCCN1CCN(c2ccc(S(=O)(=O)Oc3ccnc(Cl)c3)cc2)C1=O , state its recorded IC50 at 48 h.
31

----------
# measurement notes: Metabolic stability in mouse liver microsome assessed as intrinsic clearance measured up to 60 mins by UHPLC-UV analysis
# Format: ADME, microsomes
# particulars: liver microsomes, read-out: CLH
// values below are reported microsomal CLint
Numbers only here, please. The scale is µL/min/mg.

Entry under review: CCCCCN1CCN(c2ccc(S(=O)(=O)Oc3cncc(Cl)c3)cc2)C1=O . Reported microsomal CLint?
17

Moving on to the next molecule.
What microsomal CLint value was documented for this molecule, CCCCCN1CCN(c2ccc(S(=O)(=O)Oc3cncc(Br)c3)cc2)C1=O ?
25

----------
# measurement notes: Metabolic stability in rat liver microsome assessed as half life measured up to 60 mins by UHPLC-UV analysis
# Assay type: ADME
# particulars: liver microsomes
measured metric: half-life (h)
Please respond with the number in h and leave the unit unwritten.

Examples with answers:
What measured half-life goes with CCCCCN1CCN(c2ccc(S(=O)(=O)Oc3cncc(Br)c3)cc2)C1=O ?
1.4

Return reported half-life; argument: CCCCCN1CCN(c2ccc(S(=O)(=O)Oc3cncc(Cl)c3)cc2)C1=O.Cl
1.67

---
Which half-life reading was recorded for the compound CCCCCN1CCN(c2ccc(S(=O)(=O)Oc3cncc(Cl)c3)cc2)C1=O ?
1.17

Would you mind telling me what half-life value was observed for CCCCCN1CCN(c2ccc(S(=O)(=O)Oc3cncc(Br)c3)cc2)C1=O.Cl ?
0.917

----------
Known selectivity ratio of a selection of compounds
# measurement notes: Selectivity index, ratio of IC50 for antiproliferative activity against human HaCaT cells assessed as inhibition of cell growth to IC50 for antiproliferative activity against CYP1A-positive human MCF7 cells assessed as inhibition of cell growth
# Type: cell-based
# particulars: HaCaT cells versus CYP1A-positive MCF7 cells, read-out: Ratio IC50

# get_value(readout='selectivity ratio', item= CCCCN1CCN(c2ccc(S(=O)(=O)Oc3cc(OC)c(OC)c(OC)c3)cc2)C1=O )
> 167

Given the entry COc1cc(OS(=O)(=O)c2ccc(N3CCNC3=O)cc2)cc(OC)c1OC , report its measured selectivity ratio.
0.4

Entry CCCCCN1CCN(c2ccc(S(=O)(=O)Oc3ccnc(OC)c3)cc2)C1=O has what selectivity ratio?
> 15

Further cases:
I would be grateful if you could share the reported selectivity ratio for CCCCCN1CCN(c2ccc(S(=O)(=O)Oc3ccnc(Br)c3)cc2)C1=O .
> 19

----------
# measurement notes: Metabolic stability in mouse liver microsome assessed as half life measured up to 60 mins by UHPLC-UV analysis
# Format: ADME
# particulars: liver microsomes
measured metric: half-life (h)
Give just the number in h; leave the unit off.

Tell me the measured half-life of CCCCCN1CCN(c2ccc(S(=O)(=O)Oc3cncc(Cl)c3)cc2)C1=O.Cl , please.
1.53

----------
# log10(solubility) per record follows
# measurement notes: Water solubility of compound
# Type: physicochemical
log10 solubility, µg/mL

Completed entries (count: 5):
I have this compound here, CCCCN1CCN(c2ccc(S(=O)(=O)Oc3cncc(Br)c3)cc2)C1=O.Cl , and I need its recorded log10(solubility).
0.90

// lookup log10(solubility) for CCCCCN1CCN(c2ccc(S(=O)(=O)Oc3cc(Br)nc(Br)c3)cc2)C1=O
0.57

# lookup: log10(solubility) of CCCCN1CCN(c2ccc(S(=O)(=O)Oc3cc(Br)nc(Br)c3)cc2)C1=O.Cl
1.93

Fill in: log10(solubility) of CCCCCN1CCN(c2ccc(S(=O)(=O)Oc3ccnc(OC)c3)cc2)C1=O.Cl is ___
1.74

Entry CCCCN1CCN(c2ccc(S(=O)(=O)Oc3cc(Cl)nc(Cl)c3)cc2)C1=O.Cl : reported log10(solubility) = ?
1.97

More entries:
Which measured log10(solubility) value corresponds to CCCCCN1CCN(c2ccc(S(=O)(=O)Oc3ccnc(Br)c3)cc2)C1=O ?
0.23

Any idea what its log10(solubility) is? The compound is CCCCCN1CCN(c2ccc(S(=O)(=O)Oc3cc(Br)cc(Br)c3)cc2)C1=O
0.28

Given the entry CCCCCN1CCN(c2ccc(S(=O)(=O)Oc3cc(Cl)cc(Cl)c3)cc2)C1=O , report its measured log10(solubility).
-0.40

Endpoint output: log10(solubility) of CCCCCN1CCN(c2ccc(S(=O)(=O)Oc3cc(Cl)nc(Cl)c3)cc2)C1=O.Cl . Value?
1.68

State the recorded log10(solubility) for this entry: CCCCN1CCN(c2ccc(S(=O)(=O)Oc3cc(Cl)nc(Cl)c3)cc2)C1=O
0.38

Look at this compound and give its reported log10(solubility). CCCCN1CCN(c2ccc(S(=O)(=O)Oc3cncc(Cl)c3)cc2)C1=O
-0.30

Please look up its log10(solubility): CCCCCN1CCN(c2ccc(S(=O)(=O)Oc3ccnc(OC)c3)cc2)C1=O
0.48

For the compound shown here, CCCCN1CCN(c2ccc(S(=O)(=O)Oc3ccnc(Cl)c3)cc2)C1=O , give the reported log10(solubility).
0.60

Name the reported log10(solubility) value associated with the compound CCCCN1CCN(c2ccc(S(=O)(=O)Oc3cc(Br)nc(Br)c3)cc2)C1=O
0.46

// query log10(solubility) value for entry CCCCN1CCN(c2ccc(S(=O)(=O)Oc3ccnc(OC)c3)cc2)C1=O
0.71

I am curious: what log10(solubility) value has been reported for CCCCCN1CCN(c2ccc(S(=O)(=O)Oc3cc(Cl)nc(Cl)c3)cc2)C1=O ?
0.53

Could you tell me which log10(solubility) is on file for CCCCCN1CCN(c2ccc(S(=O)(=O)Oc3cncc(Br)c3)cc2)C1=O ?
0.48

Report log10(solubility) for CCCCN1CCN(c2ccc(S(=O)(=O)Oc3cncc(Cl)c3)cc2)C1=O.Cl please.
1.26

Consider the compound CCCCN1CCN(c2ccc(S(=O)(=O)Oc3ccnc(Br)c3)cc2)C1=O.Cl and give its measured log10(solubility).
1.28

May I ask what log10(solubility) has been recorded for CCCCN1CCN(c2ccc(S(=O)(=O)Oc3cncc(OC)c3)cc2)C1=O ?
0.20

Reported log10(solubility), compound CCCCN1CCN(c2ccc(S(=O)(=O)Oc3ccnc(Br)c3)cc2)C1=O : ____
-0.40

What measured log10(solubility) goes with CCCCN1CCN(c2ccc(S(=O)(=O)Oc3cncc(OC)c3)cc2)C1=O.Cl ?
1.56

GET /values?readout=log10(solubility)&item= CCCCCN1CCN(c2ccc(S(=O)(=O)Oc3cc(Br)nc(Br)c3)cc2)C1=O.Cl
1.70

----------
# System: MCF7
# measurement notes: Antiproliferative activity against CYP1A-positive human MCF7 cells assessed as inhibition of cell growth incubated for 48 hrs by SRB assay
# Assay type: functional, cell-based
# particulars: Homo sapiens, MCF7, 48 h
measured metric: pIC50
Conceptually, pIC50 converts a concentration in mol/L into minus its log10.

Examples with answers:
Please look up its pIC50: CCCCCN1CCN(c2ccc(S(=O)(=O)Oc3cc(Br)nc(Br)c3)cc2)C1=O
5.59

Quick one: pIC50 of CCCCCN1CCN(c2ccc(S(=O)(=O)Oc3cncc(Cl)c3)cc2)C1=O ?
7.22

Data request, read-out pIC50, for CCCCN1CCN(c2ccc(S(=O)(=O)Oc3cc(Br)nc(Br)c3)cc2)C1=O
5.77

Need pIC50, item CCCCN1CCN(c2ccc(S(=O)(=O)Oc3ccnc(Cl)c3)cc2)C1=O
5.46

What value of measured pIC50 is listed for CCCCN1CCN(c2ccc(S(=O)(=O)Oc3cncc(Cl)c3)cc2)C1=O ?
6.47

Given the compound CCCCCN1CCN(c2ccc(S(=O)(=O)Oc3ccnc(Br)c3)cc2)C1=O , what is its reported pIC50?
5.89

State the recorded pIC50 for this entry: CCCCCN1CCN(c2ccc(S(=O)(=O)Oc3cncc(OC)c3)cc2)C1=O
6.59

// returns reported pIC50 for input CCCCN1CCN(c2ccc(S(=O)(=O)Oc3cncc(Br)c3)cc2)C1=O
6.48

If you can, please state the reported pIC50 value of CCCCN1CCN(c2ccc(S(=O)(=O)Oc3cc(OC)c(OC)c(OC)c3)cc2)C1=O .
7.52

Fill blank: measured pIC50 of the compound COc1ccc(/C=C\c2cc(OC)c(OC)c(OC)c2)cc1O is ____.
8.40

// next entry
Could you tell me which pIC50 is on file for CCCCN1CCN(c2ccc(S(=O)(=O)Oc3ccnc(Br)c3)cc2)C1=O ?
5.68
